Readings of activity score (negative = inhibition of binding) for the listed compounds
Target: Zinc finger protein mex-5 (Caenorhabditis elegans) (UniProt Q9XUB2)
Sequence (Q9XUB2 whole entry, looked up): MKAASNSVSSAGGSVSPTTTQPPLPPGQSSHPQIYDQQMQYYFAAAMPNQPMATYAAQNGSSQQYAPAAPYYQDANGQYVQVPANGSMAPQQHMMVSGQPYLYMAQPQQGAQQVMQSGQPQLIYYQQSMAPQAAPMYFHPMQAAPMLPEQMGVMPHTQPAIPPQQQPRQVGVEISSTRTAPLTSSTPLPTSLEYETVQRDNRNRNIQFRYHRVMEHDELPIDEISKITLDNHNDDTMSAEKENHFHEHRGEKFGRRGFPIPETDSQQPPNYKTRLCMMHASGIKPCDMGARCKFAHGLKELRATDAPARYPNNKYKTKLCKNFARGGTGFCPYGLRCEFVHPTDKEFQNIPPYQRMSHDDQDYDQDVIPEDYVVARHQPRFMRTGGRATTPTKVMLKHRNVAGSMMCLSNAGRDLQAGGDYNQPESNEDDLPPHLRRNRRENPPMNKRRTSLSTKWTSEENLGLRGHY
Experiment: MEX-5 zinc finger RNA-binding disruptors – biochemical, C. elegans, fluorescence polarization, MLPCN library, primary screen (AID 1832);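 further: 0% = DMSO and -100% = 5 µM competing unlabeled TCR2 RNA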
Settings: MEX-5/FITC-TCR2 RNA binding, at 10 µM, active compounds read low
The whole screen tested about 300,000 compounds, of which about 1,100 (0.37%) were called active. The full list was thinned out, with actives kept by preference.
observed property: activity score (negative = inhibition of binding) (%)

[[record]]
compound = "CCOC(=O)c1sc2nc(CSc3ccccc3)[nH]c(=O)c2c1C"
assay_target = "Zinc finger protein mex-5 (Caenorhabditis elegans) (UniProt Q9XUB2)"
unit_name = "%"
reported = 3.85

[[record]]
compound = "CN1C(=O)/C(=C\\c2ccc(-c3ccccc3)o2)SC1=S"
assay_target = "Zinc finger protein mex-5 (Caenorhabditis elegans) (UniProt Q9XUB2)"
unit_name = "%"
reported = -2.67

[[record]]
compound = "CCN(CC)CCOc1ccc2c(c1)C(=NNC(=O)c1ccccn1)c1cc(OCCN(CC)CC)ccc1-2"
assay_target = "Zinc finger protein mex-5 (Caenorhabditis elegans) (UniProt Q9XUB2)"
unit_name = "%"
reported = -21.9

[[record]]
compound = "Cc1nonc1C1CCCN1Cc1nc(-c2ccc(F)cc2F)oc1C (stereo unspecified)"
assay_target = "Zinc finger protein mex-5 (Caenorhabditis elegans) (UniProt Q9XUB2)"
unit_name = "%"
reported = -2.15

[[record]]
compound = "CCOC(=O)c1sc2nc(C)[nH]c(=O)c2c1C"
assay_target = "Zinc finger protein mex-5 (Caenorhabditis elegans) (UniProt Q9XUB2)"
unit_name = "%"
reported = -1.49

[[record]]
compound = "NC(=O)c1nsc(C(=O)N(CCCN2CCOCC2)C(C(=O)NC2CCCCC2)c2ccc(Cl)cc2)c1N (stereo unspecified)"
assay_target = "Zinc finger protein mex-5 (Caenorhabditis elegans) (UniProt Q9XUB2)"
unit_name = "%"
reported = -0.973

[[record]]
compound = "COc1ccc(C(=O)O/N=C(\\N)c2ccccn2)cc1[N+](=O)[O-]"
assay_target = "Zinc finger protein mex-5 (Caenorhabditis elegans) (UniProt Q9XUB2)"
unit_name = "%"
reported = -0.00548

[[record]]
compound = "COc1cccc(OCC(=O)NNC(=O)c2cnccn2)c1"
assay_target = "Zinc finger protein mex-5 (Caenorhabditis elegans) (UniProt Q9XUB2)"
unit_name = "%"
reported = -22.4

[[record]]
compound = "O=C(C1=C(O)C(=O)N(Cc2ccccc2)C1c1cccnc1)c1ccco1 (stereo unspecified)"
assay_target = "Zinc finger protein mex-5 (Caenorhabditis elegans) (UniProt Q9XUB2)"
unit_name = "%"
reported = -1.21

[[record]]
compound = "CSc1nnc(SCc2nc3sc(C(=O)O)c(C)c3c(=O)[nH]2)s1"
assay_target = "Zinc finger protein mex-5 (Caenorhabditis elegans) (UniProt Q9XUB2)"
unit_name = "%"
reported = -39.1

[[record]]
compound = "Cc1cc(NC(=O)CSc2nc(=O)cc(N)n2-c2ccc(F)cc2)no1"
assay_target = "Zinc finger protein mex-5 (Caenorhabditis elegans) (UniProt Q9XUB2)"
unit_name = "%"
reported = 3.29


* * *

Molecular target: Zinc finger protein mex-5 (Caenorhabditis elegans) (UniProt Q9XUB2)
Assay: MEX-5 zinc finger RNA-binding disruptors – biochemical, C. elegans, fluorescence polarization, MLPCN library, primary screen (AID 1832);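 further: 0% = DMSO and -100% = 5 µM competing unlabeled TCR2 RNA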
Details: MEX-5/FITC-TCR2 RNA binding, at 10 µM, active compounds read low
The whole screen tested about 300,000 compounds, of which about 1,100 (0.37%) were called active. This is one part of a sample in which actives are shown more often than they occur.
Readings of activity score (negative = inhibition of binding) for the listed molecules
observed property: activity score (negative = inhibition of binding) (%)

[[record]]
molecule = "COCCN1C=C2C(=O)C(C)(OC(=O)C3CCCC3)C(=O)C=C2C=C1c1ccsc1 (stereo not given)"
unit_name = "%"
reported = -2.5

[[record]]
molecule = "C=CCN1C=C2C(=O)C(C)(OC(=O)CCc3ccccc3)C(=O)C=C2C=C1c1ccc(C#N)cc1 (stereo not given)"
unit_name = "%"
reported = -5.84

[[record]]
molecule = "CCCCn1nc(C(=O)Nc2ccc(S(=O)(=O)Nc3ncccn3)cc2)c2ccccc2c1=O"
unit_name = "%"
reported = 2.51

[[record]]
molecule = "O=C(Nc1ccc(F)cc1)C(=O)c1cn(CC(=O)N2CCOCC2)c2ccccc12"
unit_name = "%"
reported = -1.93

[[record]]
molecule = "Cc1ccccc1NC(=S)NC(=O)Cc1ccc(Cl)cc1"
unit_name = "%"
reported = 0.984

